# System: test plant species
# assay: Post-emergent herbicidal activity test (greenhouse, foliar spray, visual growth reduction)
# Type: in vivo
# condition_parameters: post-emergence, 336 h, IPOHE: ivy-leaf morning glory (Ipomoea hederacea), 140 g ai/ha, 14 days after application, read-out: Visual Growth Reduction (%) 14 Days After Application, IPOHE
For each entry below, report its pest or weed control at 140 g/ha value.

Query: Answer with reported pest or weed control at 140 g/ha of "COC(=O)c1nc(-c2ccc(C(F)(F)F)c(F)c2F)ccc1Cl"
Result: 95 to 100%

Query: Answer with reported pest or weed control at 140 g/ha of "Cc1cnc(-c2ccc(Cl)c(C(=O)O)n2)c(F)c1"
Result: 0 to 29%

Query: Answer with reported pest or weed control at 140 g/ha of "COC(=O)c1nc(-c2cc3c(cc2OC)OC(F)(F)O3)c(F)cc1Cl"
Result: 95 to 100%

Query: Answer with reported pest or weed control at 140 g/ha of "O=C(O)c1nc(-c2ccc(C(F)(F)F)cc2Cl)c(F)cc1Cl"
Result: 95 to 100%

Query: Answer with reported pest or weed control at 140 g/ha of "COC(=O)c1nc(-c2ccc(Cl)cc2)ccc1Cl"
Result: 75 to 84%

Query: Answer with reported pest or weed control at 140 g/ha of "COC(=O)c1nc(-c2cc3c(cc2F)OC(F)(F)O3)c(F)cc1OC"
Result: 0 to 29%

Query: Answer with reported pest or weed control at 140 g/ha of "COC(=O)c1nc(-c2cc(F)c(C(F)(F)F)cc2Cl)ccc1Cl"
Result: 95 to 100%

* * *

# System: test plant species
# assay: Post-emergent herbicidal activity test (greenhouse, foliar spray, visual growth reduction)
# Type: in vivo
# condition_parameters: post-emergence, 336 h, AMARE: redroot pigweed (Amaranthus retroflexus), 140 g ai/ha, 14 days after application, read-out: Visual Growth Reduction (%) 14 Days After Application, AMARE
For each entry below, report its pest or weed control at 140 g/ha value.

Query: Answer with reported pest or weed control at 140 g/ha of COC(=O)c1nc(-c2ccc(C(F)(F)F)c([S+](C)[O-])c2Cl)ccc1Cl (stereo not drawn)
Result: 0 to 29%

Query: Answer with reported pest or weed control at 140 g/ha of "O=C(O)c1nc(-c2cc3c(cc2Cl)OCO3)c(F)cc1Cl"
Result: 75 to 84%

Query: Answer with reported pest or weed control at 140 g/ha of "C=Cc1ccc(-c2ccc(Cl)c(C(=O)OC)n2)c(Cl)c1"
Result: 0 to 29%

Query: Answer with reported pest or weed control at 140 g/ha of "O=C(O)c1nc(-c2ccc(C(F)(F)F)nc2)ccc1Cl"
Result: 0 to 29%

Query: Answer with reported pest or weed control at 140 g/ha of "COC(=O)c1nc(-c2ccc(C(F)(F)F)cc2Cl)ccc1C(F)(F)F"
Result: 30 to 44%

Query: Answer with reported pest or weed control at 140 g/ha of "COC(=O)c1nc(-c2c(Cl)cc(C(F)(F)F)cc2C#N)ccc1Cl"
Result: 95 to 100%

Query: Answer with reported pest or weed control at 140 g/ha of "COC(=O)c1nc(-c2ccc(Br)cc2Cl)ccc1Cl"
Result: 60 to 74%

Query: Answer with reported pest or weed control at 140 g/ha of "COC(=O)c1nc(-c2ccc(C(F)(F)F)cc2C(N)=O)ccc1Cl"
Result: 0 to 29%

Query: Answer with reported pest or weed control at 140 g/ha of "COC(=O)c1nc(-c2ccc(C(F)(F)F)cc2Cl)c(F)c(Cl)c1Cl"
Result: 0 to 29%

Query: Answer with reported pest or weed control at 140 g/ha of "COC(=O)c1nc(-c2ccc(I)cc2)c(F)cc1Cl"
Result: 0 to 29%

Query: Answer with reported pest or weed control at 140 g/ha of "COC(=O)c1nc(-c2ccc(C(F)(F)F)cc2Cl)c(SC)cc1Cl"
Result: 0 to 29%

Query: Answer with reported pest or weed control at 140 g/ha of "COC(=O)c1nc(-c2ccc(C(F)(F)F)cc2Cl)c(O)cc1Cl"
Result: 0 to 29%

Query: Answer with reported pest or weed control at 140 g/ha of "COC(=O)c1nc(-c2cc(F)c(Cl)cc2Cl)ccc1Cl"
Result: 95 to 100%

Query: Answer with reported pest or weed control at 140 g/ha of "COC(=O)c1nc(-c2ccc(C(F)(F)F)cc2Cl)cc(Br)c1Cl"
Result: 0 to 29%

Query: Answer with reported pest or weed control at 140 g/ha of "O=C(O)c1nc(-c2ccc(C(F)(F)F)cc2F)c(F)cc1Cl"
Result: 95 to 100%

Query: Answer with reported pest or weed control at 140 g/ha of "COC(=O)c1nc(-c2ccc(C#N)c(Cl)c2)ccc1Cl"
Result: 0 to 29%

Query: Answer with reported pest or weed control at 140 g/ha of "O=C(O)c1nc(-c2ccc(SC(F)(F)F)cc2Cl)c(F)cc1Cl"
Result: 95 to 100%

Query: Answer with reported pest or weed control at 140 g/ha of "COC(=O)c1nc(-c2cnc(C(F)(F)F)cc2Cl)ccc1Cl"
Result: 0 to 29%

Query: Answer with reported pest or weed control at 140 g/ha of "O=C(OCc1ccccc1)c1nc(-c2ccc(C(F)(F)F)cc2Cl)ccc1Cl"
Result: 95 to 100%

Query: Answer with reported pest or weed control at 140 g/ha of "COC(=O)c1nc(-c2ccc(C(F)(F)F)cc2C)c(F)cc1Cl"
Result: 95 to 100%

Query: Answer with reported pest or weed control at 140 g/ha of "O=C(O)c1nc(-c2ccc(C(F)(F)F)nc2)c(Cl)cc1Cl"
Result: 0 to 29%

* * *

# System: test plant species
# assay: Post-emergent herbicidal activity test (greenhouse, foliar spray, visual growth reduction)
# Type: in vivo
# condition_parameters: post-emergence, 336 h, SETFA: giant foxtail (Setaria faberi), 140 g ai/ha, 14 days after application, read-out: Visual Growth Reduction (%) 14 Days After Application, SETFA
observation_type: pest or weed control at 140 g/ha

Query: Answer with reported pest or weed control at 140 g/ha of "COC(=O)c1nc(-c2ccc(C#N)c(Cl)c2)ccc1Cl"
Result: 0 to 29%

Query: Answer with reported pest or weed control at 140 g/ha of "COC(=O)c1nc(-c2ccc(Cl)c(F)c2C)ccc1Cl"
Result: 75 to 84%

Query: Answer with reported pest or weed control at 140 g/ha of "COC(=O)c1nc(-c2ccc(F)c3c2OC(F)(F)O3)c(F)cc1Cl"
Result: 0 to 29%

Query: Answer with reported pest or weed control at 140 g/ha of "O=C(O)c1nc(-c2cc3c(cc2Cl)OCO3)c(Cl)cc1Cl"
Result: 0 to 29%

Query: Answer with reported pest or weed control at 140 g/ha of "COC(=O)c1nc(-c2ccc(C(F)(F)F)cc2Cl)c(Cl)cc1Cl"
Result: 60 to 74%

Query: Answer with reported pest or weed control at 140 g/ha of "COC(=O)c1nc(-c2cc(Cl)c(C(F)(F)F)cc2C)ccc1Cl"
Result: 0 to 29%

Query: Answer with reported pest or weed control at 140 g/ha of "COC(=O)c1nc(-c2cc(F)c3c(c2)OC(F)(F)O3)c(F)cc1Cl"
Result: 0 to 29%

Query: Answer with reported pest or weed control at 140 g/ha of "COC(=O)c1nc(-c2cc([N+](=O)[O-])c(C(F)(F)F)cc2Cl)c(F)cc1Cl"
Result: 0 to 29%

Query: Answer with reported pest or weed control at 140 g/ha of COC(=O)c1nc(-c2c(Cl)cc(C(F)(F)F)cc2[S+](C)[O-])ccc1Cl (stereo not shown)
Result: 0 to 29%

Query: Answer with reported pest or weed control at 140 g/ha of "COC(=O)c1nc(-c2ccc(C(F)(F)F)cc2Cl)cc(OC)c1Cl"
Result: 0 to 29%

* * *

# Tested on: test plant species
# assay: Post-emergent herbicidal activity test (greenhouse, foliar spray, visual growth reduction)
# Type: in vivo
# condition_parameters: post-emergence, 336 h, CYPES: yellow nutsedge (Cyperus esculentus), 140 g ai/ha, 14 days after application, read-out: Visual Growth Reduction (%) 14 Days After Application, CYPES
observation_type: pest or weed control at 140 g/ha

Query: Answer with reported pest or weed control at 140 g/ha of "COC(=O)c1nc(-c2ccc3cc[nH]c3c2F)ccc1Cl"
Result: 0 to 29%

Query: Answer with reported pest or weed control at 140 g/ha of "COC(=O)c1cc(Cl)cc(-c2ccc(Cl)cc2Cl)n1"
Result: 0 to 29%

Query: Answer with reported pest or weed control at 140 g/ha of "O=C(O)c1nc(-c2ncc(Cl)c(C(F)F)c2Cl)ccc1Cl"
Result: 0 to 29%

Query: Answer with reported pest or weed control at 140 g/ha of "COC(=O)c1nc(-c2ccc(C(F)(F)F)nc2Cl)ccc1Cl"
Result: 45 to 59%

Query: Answer with reported pest or weed control at 140 g/ha of "COC(=O)c1nc(-c2cc(F)c(C)cc2Cl)ccc1Cl"
Result: 0 to 29%

Query: Answer with reported pest or weed control at 140 g/ha of "O=C(O)c1nc(-c2cc3c(cc2Cl)OC(F)(F)O3)c(Cl)cc1Cl"
Result: 30 to 44%

Query: Answer with reported pest or weed control at 140 g/ha of "O=C(O)c1nc(-c2ncc(C(F)(F)F)cc2Cl)ccc1Cl"
Result: 0 to 29%

Query: Answer with reported pest or weed control at 140 g/ha of "COC(=O)c1nc(-c2ccc(Cl)c(OC)c2F)c(F)c(Cl)c1Cl"
Result: 0 to 29%

Query: Answer with reported pest or weed control at 140 g/ha of "COC(=O)c1nc(-c2ccc(C(F)(F)F)cc2Cl)cc(OC)c1Cl"
Result: 0 to 29%

Query: Answer with reported pest or weed control at 140 g/ha of "COc1ncc(Cl)cc1-c1ccc(Cl)c(C(=O)O)n1"
Result: 0 to 29%

Query: Answer with reported pest or weed control at 140 g/ha of "COC(=O)c1nc(-c2ccc(Cl)c(N(C)C)c2)ccc1Cl"
Result: 0 to 29%

Query: Answer with reported pest or weed control at 140 g/ha of "COC(=O)c1nc(-c2ccc(OC(F)(F)F)cc2Cl)ccc1Cl"
Result: 0 to 29%
